# experimental-system: furin, P09958;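 note: purified furin at 1:10 enzyme:substrate in 50 mM HEPES pH 7.5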
# Sequence (P09958 whole entry): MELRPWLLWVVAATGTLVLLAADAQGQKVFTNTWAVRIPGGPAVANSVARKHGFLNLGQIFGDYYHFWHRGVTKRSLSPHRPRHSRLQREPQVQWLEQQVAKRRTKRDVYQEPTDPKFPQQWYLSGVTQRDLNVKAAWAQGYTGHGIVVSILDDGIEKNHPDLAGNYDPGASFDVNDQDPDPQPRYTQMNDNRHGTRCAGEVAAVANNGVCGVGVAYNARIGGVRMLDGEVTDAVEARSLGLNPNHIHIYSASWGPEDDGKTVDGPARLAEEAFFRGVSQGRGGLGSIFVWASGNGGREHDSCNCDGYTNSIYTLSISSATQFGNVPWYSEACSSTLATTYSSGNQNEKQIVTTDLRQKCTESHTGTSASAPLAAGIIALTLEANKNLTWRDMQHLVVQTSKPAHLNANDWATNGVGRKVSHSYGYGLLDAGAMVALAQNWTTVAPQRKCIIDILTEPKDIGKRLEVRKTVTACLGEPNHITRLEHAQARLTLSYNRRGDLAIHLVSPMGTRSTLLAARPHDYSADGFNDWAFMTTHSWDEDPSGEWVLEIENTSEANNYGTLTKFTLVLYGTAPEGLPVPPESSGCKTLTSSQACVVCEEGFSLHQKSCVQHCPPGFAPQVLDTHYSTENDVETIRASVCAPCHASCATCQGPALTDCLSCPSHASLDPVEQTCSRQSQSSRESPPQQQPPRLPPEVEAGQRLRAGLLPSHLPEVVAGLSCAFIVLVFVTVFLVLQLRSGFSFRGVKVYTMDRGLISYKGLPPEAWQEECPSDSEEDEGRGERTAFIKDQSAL
# protocol-text: furin cleavage Z-score vs untreated control; higher = more cleavage, active = 3.5 or more, inactive = 1 or less, 8 variable residues between constant flanks
# run-parameters: 30 min
This is one part of the list. How many sequences the whole screen found active is unknown.
Please state which outcome applies, choosing from active, inactive

Study these solved cases before continuing.
Exercise: // return assay outcome for CASLLRERRAAGNASASA [FS-1613]
Key: inactive

Exercise: Consider next the sequence CAHRSVRRRAAGNASASA [FS-798] in the same way.
Key: active

Exercise: Consider next the sequence CALHCPTDCFAGNASASA [HC450] in the same way.
Key: inactive

Exercise: Consider next the sequence CATKKRPRRMAGNASASA [FS-1171] in the same way.
Key: active

Exercise: Consider next the sequence CALNARYSRSAGNASASA [FS-52] in the same way.
Key: active

***
Exercise: // return assay outcome for CARHYRPTGYAGNASASA [FS-2682]
Key: inactive

Exercise: Consider next the sequence CARKRRGTGYAGNASASA [FS-2565] in the same way.
Key: active

Exercise: Consider next the sequence CAKRRLQKRSAGNASASA [FS-1638] in the same way.
Key: active

Exercise: Consider next the sequence CARKRRGTKGAGNASASA [FS-1959] in the same way.
Key: active

Exercise: Consider next the sequence CAERGFFYTPAGNASASA [EK9] in the same way.
Key: inactive
